Data provenance: the Immune Epitope Database (IEDB)

# system_name: HLA-A*03:01
# assay_summary: IEDB peptide-MHC binding, purified MHC/competitive/fluorescence; filed as Kd, often an IC50 or EC50 that approximates it; bounds were set here for any values at or beyond the usual limits of such assays
# condition_description: source organism: Campylobacter jejuni subsp. jejuni NCTC 11168 = ATCC 700819
measured_metric: Kd

Request: Query: Kd; subject: `AVGFFPTGV`
Response: ≥ 20 µM

* * *

# system_name: HLA-B*07:02
# assay_summary: IEDB peptide-MHC binding, purified MHC/competitive/fluorescence; filed as Kd, often an IC50 or EC50 that approximates it; bounds were set here for any values at or beyond the usual limits of such assays
# condition_description: source organism: Human herpesvirus 4 strain B95-8
measured_metric: Kd

Request: Query: Kd; subject: `HPVGEADYFEY`
Response: ≥ 20 µM
